Recorded pIC50 (-lg[IC50]), one value per entry.
# System: RSV A strain A2
# PROTOCOL TEXT: Antiviral activity against RSV A strain A2 in HEp-2 cells (ELISA virus titer)
# Format: cell-based, respiratory syncytial virus
# CONDITION DETAILS: RSV A, from Table 1 values

The following compounds have reported results that may help.
• COc1ccc(-c2cc(=O)oc3cc(OCC4=CCC5CC4C5(C)C)ccc23)cc1 (stereo not shown) [Compound 17b] = 4.90
• COc1ccc(-c2cc(=O)oc3cc(OC/C=C(\C)CCC=C(C)C)ccc23)cc1 [Compound 17a] = 4.20
• CC1(C)[C@H]2CC=C(CCCOc3ccc4c(-c5ccc(Br)cc5)cc(=O)oc4c3)[C@@H]1C2 [Compound 15e] = 4.90

Kindly consider the entry below.
Record CC1(C)C2CC=C(COc3ccc4c(-c5ccc(Br)cc5)cc(=O)oc4c3)C1C2 (stereo not shown) [Compound 15b] / RSV A strain A2, pIC50 (-lg[IC50]) recorded as 4.82

====

# System: RSV A strain A2
# PROTOCOL TEXT: Antiviral activity against RSV A strain A2 in HEp-2 cells (ELISA virus titer)
# Assay type: cell-based, respiratory syncytial virus
# CONDITION DETAILS: human respiratory syncytial virus, HEp-2, RSV A, from Table 1 values; read-out: pIC50 (-lg[IC50]) (converted)
EXPERIMENTAL READOUT: IC50 (µM)
Report as a plain number; the unit µM is understood.

• CC1(C)[C@H]2CC=C(CCNc3ccc4c(-c5ccccc5)cc(=O)oc4c3)[C@@H]1C2 [Compound 22] = 79.4
• CC1(C)[C@H]2CC=C(CCCOc3ccc4c(-c5ccccc5)cc(=O)oc4c3)[C@@H]1C2 [Compound 14e] = 7.59
• CC1(C)[C@H]2CC=C(CCCCOc3ccc4c(-c5ccc(Br)cc5)cc(=O)oc4c3)[C@@H]1C2 [Compound 15f] = 9.55
• CC(C)=CCC/C(C)=C/COc1ccc2c(-c3ccc(F)cc3)cc(=O)oc2c1 [Compound 16a] = 47.9
• CC1(C)C2CC=C(CCOc3ccc4c(-c5ccccc5)cc(=O)oc4c3)C1C2 (stereo not shown) [Compound 14d] = 83.2
• CC(C)=CCC/C(C)=C/COc1ccc2c(-c3ccc(Br)cc3)cc(=O)oc2c1 [Compound 15a] = 8.91

With RSV A strain A2 as the test system, CC1(C)[C@H]2CC=C(CCCCOc3ccc4c(-c5ccccc5)cc(=O)oc4c3)[C@@H]1C2 [Compound 14f] showed IC50 of 112

Record COc1ccc(-c2cc(=O)oc3cc(OCCC4=CCC5CC4C5(C)C)ccc23)cc1 (stereo not shown) [Compound 17d] has RSV A strain A2 IC50 equal to 64.6

====

# Tested on: RSV A strain A2
# PROTOCOL TEXT: Antiviral activity against RSV A strain A2 in HEp-2 cells (ELISA virus titer)
# Format: cell-based, respiratory syncytial virus
# CONDITION DETAILS: human respiratory syncytial virus, HEp-2, RSV A, from Table 1 values; read-out: pIC50 (-lg[IC50]) (converted)
IC50 overview
Write down the numeric answer in µM and omit the unit.

Answered examples (2):
• CC1(C)[C@H]2CC=C(CCCCOc3ccc4c(-c5ccc(F)cc5)cc(=O)oc4c3)[C@@H]1C2 [Compound 16f] = 9.33
• CC1(C)[C@H]2CC=C(CCCOc3ccc4c(-c5ccc(F)cc5)cc(=O)oc4c3)[C@@H]1C2 [Compound 16e] = 110

Note to self: IC50 recorded for O=c1cc(-c2ccc(Br)cc2)c2ccc(OCc3ccccc3)cc2o1 [Compound 15g] was 83.2

====

# Tested on: HEp-2 cells
# PROTOCOL TEXT: Cytotoxicity on non-infected HEp-2 cells, MTT assay
# Assay type: cell-based
# CONDITION DETAILS: read-out: CC50 (50% cytotoxic concentration), MTT, 24 h
EXPERIMENTAL READOUT: CC50 (µM)
Provide only the numeric value, understood in µM.

Examples with answers:
* COc1ccc(-c2cc(=O)oc3cc(OCC4=CCC5CC4C5(C)C)ccc23)cc1 (centres unmarked) [Compound 17c] | 14.7
* CC1(C)C2CC=C(COc3ccc4c(-c5ccccc5)cc(=O)oc4c3)C1C2 (centres unmarked) [Compound 14c] | 813
* CC1(C)C2CC=C(COc3ccc4c(-c5ccc(F)cc5)cc(=O)oc4c3)C1C2 (centres unmarked) [Compound 16c] | 20.5
* CC1(C)C2CC=C(COc3ccc4c(-c5ccc(Br)cc5)cc(=O)oc4c3)C1C2 (centres unmarked) [Compound 15c] | 90.8

# input for lookup
Summary line: CC1(C)C2CC=C(COc3ccc4c(-c5ccc(F)cc5)cc(=O)oc4c3)C1C2 (centres unmarked) [Compound 16b] , HEp-2 cells, reported CC50 = 297

====

# System: RSV A strain A2
# PROTOCOL TEXT: Antiviral activity against RSV A strain A2 in HEp-2 cells (ELISA virus titer)
# Assay type: cell-based, respiratory syncytial virus
Each record is given 1 (yes) if its reported SI (selective index) is strictly below 9. Records at or above 9 are given 0 (no).

Answered examples (5):
• CC1(C)C2CC=C(COc3ccc4c(-c5ccccc5)cc(=O)oc4c3)C1C2 (stereo not shown) [Compound 14b] = 0 (no)
• CC1(C)[C@H]2CC=C(CCCCOc3ccc4c(-c5ccc(F)cc5)cc(=O)oc4c3)[C@@H]1C2 [Compound 16f] = 0 (no)
• COc1ccc(-c2cc(=O)oc3cc(OC/C=C(\C)CCC=C(C)C)ccc23)cc1 [Compound 17a] = 1 (yes)
• CC(C)=CCC/C(C)=C/COc1ccc2c(-c3ccc(Br)cc3)cc(=O)oc2c1 [Compound 15a] = 1 (yes)
• COc1ccc(-c2cc(=O)oc3cc(OCC4=CCC5CC4C5(C)C)ccc23)cc1 (stereo not shown) [Compound 17c] = 1 (yes)

Attention now turns to another entry.
Asked: Strictly below 9 in SI (selective index)? CC1(C)C2CC=C(CCOc3ccc4c(-c5ccc(Br)cc5)cc(=O)oc4c3)C1C2 (stereo not shown) [Compound 15d]
Given back: 1 (yes)

====

pIC50 (-lg[IC50]) overview
# Test system: RSV A strain A2
# PROTOCOL TEXT: Antiviral activity against RSV A strain A2 in HEp-2 cells (ELISA virus titer)
# Assay type: cell-based, respiratory syncytial virus
# CONDITION DETAILS: RSV A, from Table 1 values
Could you keep your reply to the number by itself?

In the examples that follow, each entry is paired with its recorded pIC50 (-lg[IC50]).
• COc1ccc(-c2cc(=O)oc3cc(OCCCCC4=CC[C@H]5C[C@@H]4C5(C)C)ccc23)cc1 [Compound 17f] = 4.97
• CC1(C)C2CC=C(COc3ccc4c(-c5ccc(F)cc5)cc(=O)oc4c3)C1C2 (stereo not drawn) [Compound 16c] = 4.84
• COc1ccc(-c2cc(=O)oc3cc(OCc4ccccc4)ccc23)cc1 [Compound 17g] = 4.80
• CC1(C)[C@H]2CC=C(CNc3ccc4c(-c5ccccc5)cc(=O)oc4c3)[C@@H]1C2 = 4.90

Looking up O=c1cc(-c2ccc(F)cc2)c2ccc(OCc3ccccc3)cc2o1 [Compound 16g] , I found its pIC50 (-lg[IC50]) recorded as 3.20

pIC50 (-lg[IC50]) measured on CC1(C)C2CC=C(COc3ccc4c(-c5ccccc5)cc(=O)oc4c3)C1C2 (stereo not drawn) [Compound 14b] = 4.75

Quick note, pIC50 (-lg[IC50]) for CC1(C)C2CC=C(CCOc3ccc4c(-c5ccc(Br)cc5)cc(=O)oc4c3)C1C2 (stereo not drawn) [Compound 15d] landed at 4.70

For reference, reported pIC50 (-lg[IC50]) for CC1(C)C2CC=C(COc3ccc4c(-c5ccccc5)cc(=O)oc4c3)C1C2 (stereo not drawn) [Compound 14c] stands at 3.63

// sample CC1(C)C2CC=C(COc3ccc4c(-c5ccc(F)cc5)cc(=O)oc4c3)C1C2 (stereo not drawn) [Compound 16b] , its pIC50 (-lg[IC50]) was 3.99

====

# Test system: RSV A strain A2
# PROTOCOL TEXT: Antiviral activity against RSV A strain A2 in HEp-2 cells (ELISA virus titer)
# Assay type: cell-based, respiratory syncytial virus
# CONDITION DETAILS: human respiratory syncytial virus, HEp-2, RSV A, from Table 1 values; read-out: pIC50 (-lg[IC50]) (converted)
EXPERIMENTAL READOUT: IC50

Worked cases, IC50 given:
- CC1(C)[C@H]2CC=C(CCCOc3ccc4c(-c5ccc(Br)cc5)cc(=O)oc4c3)[C@@H]1C2 [Compound 15e]: > 12.6 µM
- COc1ccc(-c2cc(=O)oc3cc(OC/C=C(\C)CCC=C(C)C)ccc23)cc1 [Compound 17a]: 58.9 µM
- O=c1cc(-c2ccc(F)cc2)c2ccc(OCc3ccccc3)cc2o1 [Compound 16g]: 692 µM
- COc1ccc(-c2cc(=O)oc3cc(OCCCCC4=CC[C@H]5C[C@@H]4C5(C)C)ccc23)cc1 [Compound 17f]: > 12.6 µM
- CC1(C)C2CC=C(CCOc3ccc4c(-c5ccc(Br)cc5)cc(=O)oc4c3)C1C2 (centres unmarked) [Compound 15d]: > 20 µM
- CC(C)=CCC/C(C)=C/COc1ccc2c(-c3ccccc3)cc(=O)oc2c1 [Compound 14a]: 67.6 µM

Result for `CC1(C)[C@H]2CC=C(CNc3ccc4c(-c5ccccc5)cc(=O)oc4c3)[C@@H]1C2` , tested on RSV A strain A2, IC50: > 12.6 µM

For COc1ccc(-c2cc(=O)oc3cc(OCC4=CCC5CC4C5(C)C)ccc23)cc1 (centres unmarked) [Compound 17b] on RSV A strain A2, measured IC50 was > 12.6 µM
